Just for reference, patent US20260265265A1 is where these values come from.

Property: IC50; scope: individual compounds
molecular target: Recombinant Human ENPP-2/Autotaxin (Homo sapiens, UniProt Q13822); assay: LysoPLD activity measurement (autotaxin enzyme inhibition, choline release, TOOS reagent); details: LysoPLD inhibitory activity; substrate 14:0 LysoPC; absorbance at 555 nm
Recorded Metric: IC50

structure_as_smiles=CN(C)S(=O)(=O)c1ccc(-n2c(=O)n(C3(c4cccc(C(=O)O)c4)CC3)c3ccc(Cl)cc32)cc1 recorded_metric=IC50 result="< 10 nM"
structure_as_smiles=CC(C)(CO)c1ccc(-n2c(=O)n(C3(c4cccc(C(=O)O)c4)CC3)c3ccc(Cl)cc32)cc1 recorded_metric=IC50 result="< 10 nM"
structure_as_smiles=O=C(O)c1cccc(C2(n3c(=O)n(-c4ccc(C(=O)N5CC6(COC6)C5)cc4)c4cc(Cl)ccc43)CC2)c1F recorded_metric=IC50 result="< 10 nM"
structure_as_smiles=O=C(O)c1cccc(C2(n3c(=O)n(-c4ccc(N5CC6(CCC6)C5)cc4)c4cc(Cl)ccc43)CC2)c1 recorded_metric=IC50 result="10 to 100 nM"
structure_as_smiles=O=C(O)c1cccc(Cn2c(=O)n(-c3ccc(N4CCC(F)(F)C4)cc3)c3c(F)c(Cl)ccc32)c1F recorded_metric=IC50 result="10 to 100 nM"
structure_as_smiles=O=C(O)c1cccc(Cn2c(=O)n(-c3ccc(C4CCN(C(=O)C5CC5)CC4)cc3)c3cc(Cl)ccc32)c1 recorded_metric=IC50 result="10 to 100 nM"
structure_as_smiles=CCC(=O)N1CCC(c2ccc(-n3c(=O)n(Cc4cccc(C(=O)O)c4)c4ccc(Cl)cc43)cc2)CC1 recorded_metric=IC50 result="10 to 100 nM"
structure_as_smiles=O=C(O)c1cc(F)cc(C2(n3c(=O)n(-c4ccc(C5CCOCC5)nc4)c4cc(Cl)ccc43)CC2)c1 recorded_metric=IC50 result="10 to 100 nM"
structure_as_smiles=CCCn1cc(-c2ccc(-n3c(=O)n(C4(c5cccc(C(=O)O)c5)CC4)c4ccc(Cl)cc43)cc2)cn1 recorded_metric=IC50 result="< 10 nM"
structure_as_smiles=O=C(O)c1cc(Cn2c(=O)n(-c3ccccc3)c3cc(Cl)ccc32)ccc1F recorded_metric=IC50 result="100 to 1000 nM"
structure_as_smiles=O=C(O)c1cc(F)cc(C2(n3c(=O)n(-c4ccc(N5CC(F)(F)C5)cc4)c4cc(Cl)ccc43)CC2)c1 recorded_metric=IC50 result="< 10 nM"
structure_as_smiles=O=C(O)c1cccc(C2(n3c(=O)n(-c4ccc(-c5nnc(C6CC6)o5)cc4)c4cc(Cl)ccc43)CC2)c1 recorded_metric=IC50 result="< 10 nM"
structure_as_smiles=O=C(O)c1cccc(C2(n3c(=O)n(-c4ccc(C5CCOCC5)cc4)c4cc(Cl)cnc43)CC2)c1 recorded_metric=IC50 result="< 10 nM"
structure_as_smiles=CN(C)c1ccc(-n2c(=O)n(C3(c4cccc(C(=O)O)c4)CCC3)c3ccc(Cl)cc32)cc1 recorded_metric=IC50 result="10 to 100 nM"
structure_as_smiles=CC(C)C(=O)Nc1ccc(-n2c(=O)n(Cc3cccc(C(=O)O)c3)c3ccc(Cl)cc32)cc1 recorded_metric=IC50 result="100 to 1000 nM"
structure_as_smiles=O=C(O)c1cccc(C2(n3c(=O)n(-c4ccc(C(=O)N5CC(O)C5)cc4)c4cc(Cl)cnc43)CC2)c1 recorded_metric=IC50 result="< 10 nM"
structure_as_smiles=O=C(O)c1cccc(C2(n3c(=O)n(-c4ccc(C(=O)N5CCCC5)cc4)c4cc(Cl)ccc43)CC2)c1 recorded_metric=IC50 result="< 10 nM"
structure_as_smiles=O=C(O)c1cccc(C2(n3c(=O)n(-c4ccc(C(=O)N5CC(O)C5)cc4)c4cc(Cl)ccc43)CC2)c1 recorded_metric=IC50 result="< 10 nM"
structure_as_smiles=O=C(O)c1cccc(Cn2c(=O)n(-c3ccc(N4CCOCC4)cc3)c3cc(Cl)cnc32)c1 recorded_metric=IC50 result="100 to 1000 nM"
structure_as_smiles=O=C(O)c1cccc(C2(n3c(=O)n(-c4ccc(C5=CCOC5)cc4)c4cc(Cl)ccc43)CC2)c1 recorded_metric=IC50 result="< 10 nM"
structure_as_smiles=Cc1ccc(-n2c(=O)n(Cc3cccc(C(=O)O)c3)c3ccc(Cl)cc32)cc1 recorded_metric=IC50 result="100 to 1000 nM"
structure_as_smiles=O=C(O)c1cccc(C2(n3c(=O)n(-c4ccc(N5CCOCC5)cc4)c4cc(OC(F)(F)F)ccc43)CC2)c1 recorded_metric=IC50 result="10 to 100 nM"
structure_as_smiles=CS(=O)(=O)c1ccc(-n2c(=O)n(C3(c4cccc(C(=O)O)c4)CC3)c3ncc(Cl)cc32)cc1 recorded_metric=IC50 result="10 to 100 nM"
structure_as_smiles=O=C(O)c1c(F)ccc(Cn2c(=O)n(-c3ccc(N4CCOCC4)cc3)c3cc(Cl)ccc32)c1F recorded_metric=IC50 result="10 to 100 nM"
structure_as_smiles=CN(C)c1ccc(-n2c(=O)n(Cc3cccc(C(=O)O)c3)c3ccc(Cl)cc32)cc1 recorded_metric=IC50 result="10 to 100 nM"
structure_as_smiles=CC1(C)Cc2cc(-n3c(=O)n(Cc4cccc(C(=O)O)c4)c4ccc(Cl)cc43)ccc2C1=O recorded_metric=IC50 result="100 to 1000 nM"
structure_as_smiles=O=C(O)c1cccc(C2(n3c(=O)n(-c4ccc(N5CCCOCC5)cc4)c4cc(Cl)ccc43)CC2)c1 recorded_metric=IC50 result="< 10 nM"
structure_as_smiles=O=C(O)c1cccc(C2(n3c(=O)n(-c4ccc(C(=O)N5CCC(F)(F)C5)cc4)c4cc(Cl)ccc43)CC2)c1 recorded_metric=IC50 result="< 10 nM"
structure_as_smiles=O=C(O)c1cccc(C2(n3c(=O)n(-c4ccc(N5CCOCC5)cc4)c4cc(Cl)ccc43)CC2)c1 recorded_metric=IC50 result="< 10 nM"
